- Test system: AR mRNA
- experiment description: Antisense inhibition of human AR in HuVEC cells, single concentration (electroporation, qRT-PCR RTS3559)
- Assay type: cell-based
- applied conditions: Table 20, 500 nM oligonucleotide, electroporation, approximately 24 hours, relative to untreated control
Oligonucleotides are written 5' to 3', each unit as a sugar letter and its base; * is a phosphorothioate linkage, no mark a phosphodiester; rarer units and linkages stand in square brackets, end groups in braces. Plain capitals give the bases only. k = constrained ethyl (cEt); [5mC] = 5-methylcytosine; d = 2'-deoxy (DNA)
Decide using % inhibition: a value greater than or equal to 40% is condition met, a smaller one is condition not met.

| substance | assigned category |
| --- | --- |
| 583893 (kA*kG*k[5mC]*dA*dG*d[5mC]*d[5mC]*dT*dA*dG*dG*d[5mC]*dT*k[5mC]*kT*k[5mC]; antisense) [compound 583893] | condition not met |
| 583833 (kT*kG*kT*dT*d[5mC]*d[5mC]*d[5mC]*d[5mC]*dT*dG*dG*dA*d[5mC]*kT*k[5mC]*kA; antisense) [compound 583833] | condition not met |
| 583850 (kG*kG*kA*d[5mC]*dG*d[5mC]*dA*d[5mC]*dA*dG*d[5mC]*dG*dG*kG*kT*kG; antisense) [compound 583850] | condition not met |
| 583881 (k[5mC]*k[5mC]*kT*dT*dT*dG*dG*dT*dG*dT*dA*dA*d[5mC]*k[5mC]*kT*k[5mC]; antisense) [compound 583881] | condition met |
| 583836 (k[5mC]*k[5mC]*kG*dA*dA*dG*d[5mC]*dT*dG*dT*dT*d[5mC]*d[5mC]*k[5mC]*k[5mC]*kT; antisense) [compound 583836] | condition not met |
| 583856 (kA*kA*k[5mC]*d[5mC]*dT*dT*dT*dG*d[5mC]*dA*dT*dT*d[5mC]*kG*kG*k[5mC]; antisense) [compound 583856] | condition met |
| 583835 (kG*kA*kA*dG*d[5mC]*dT*dG*dT*dT*d[5mC]*d[5mC]*d[5mC]*d[5mC]*kT*kG*kG; antisense) [compound 583835] | condition met |
| 583843 (kG*kT*kA*d[5mC]*dA*dT*dG*d[5mC]*dA*dA*dT*d[5mC]*d[5mC]*k[5mC]*k[5mC]*k[5mC]; antisense) [compound 583843] | condition not met |
| 583862 (kG*k[5mC]*kT*d[5mC]*dT*dT*dG*d[5mC]*d[5mC]*dT*dG*d[5mC]*dG*k[5mC]*kT*kG; antisense) [compound 583862] | condition not met |
| 583868 (kA*k[5mC]*kT*d[5mC]*dA*dG*d[5mC]*dA*dG*dT*dA*dT*d[5mC]*kT*kT*k[5mC]; antisense) [compound 583868] | condition not met |
| 583892 (k[5mC]*kA*kG*d[5mC]*d[5mC]*dT*dA*dG*dG*d[5mC]*dT*d[5mC]*dT*k[5mC]*kG*k[5mC]; antisense) [compound 583892] | condition not met |
| 583855 (k[5mC]*k[5mC]*kT*dT*dT*dG*d[5mC]*dA*dT*dT*d[5mC]*dG*dG*k[5mC]*k[5mC]*kA; antisense) [compound 583855] | condition met |
| 583865 (kT*kT*k[5mC]*dA*dG*dT*dG*d[5mC]*dT*d[5mC]*dT*dT*dG*k[5mC]*k[5mC]*kT; antisense) [compound 583865] | condition met |
| 583853 (kT*kG*k[5mC]*dA*dT*dT*d[5mC]*dG*dG*d[5mC]*d[5mC]*dA*dA*kT*kG*kG; antisense) [compound 583853] | condition not met |
| 583871 (kA*kT*kA*d[5mC]*dT*d[5mC]*dA*dG*d[5mC]*dA*dG*dT*dA*kT*k[5mC]*kT; antisense) [compound 583871] | condition met |
| 583851 (kG*kT*kG*dG*dG*dA*d[5mC]*dG*d[5mC]*dA*d[5mC]*dA*dG*k[5mC]*kG*kG; antisense) [compound 583851] | condition not met |
| 583834 (kA*kG*k[5mC]*dT*dG*dT*dT*d[5mC]*d[5mC]*d[5mC]*d[5mC]*dT*dG*kG*kA*k[5mC]; antisense) [compound 583834] | condition met |
| 583847 (kA*k[5mC]*kA*dG*d[5mC]*dG*dG*dG*dT*dG*dG*dA*dA*k[5mC]*kT*k[5mC]; antisense) [compound 583847] | condition not met |
| 583864 (k[5mC]*kA*kG*dT*dG*d[5mC]*dT*d[5mC]*dT*dT*dG*d[5mC]*d[5mC]*kT*kG*k[5mC]; antisense) [compound 583864] | condition met |
| 549458 (kG*kT*kT*dG*dA*dT*dT*dT*dA*dA*dT*dG*dG*kT*kT*kG) [compound 549458] | condition met |
| 549372 (kA*kA*kG*dT*dT*dG*dT*dA*dG*dT*dA*dG*dT*k[5mC]*kG*k[5mC]) [compound 549372] | condition not met |
| 583866 (kT*k[5mC]*kT*dT*d[5mC]*dA*dG*dT*dG*d[5mC]*dT*d[5mC]*dT*kT*kG*k[5mC]; antisense) [compound 583866] | condition not met |
